Where a name gives a salt, the structure may show the parent alone.
Reported melting point by item:
metric: melting point

1. Fc1cc(N2CCN([C@H]3CC[C@H](c4csc5ccccc54)CC3)CC2)c2ncccc2c1 = 195 °C
2. COc1ccc2occ([C@H]3CC[C@@H](N4CCN(c5cc(F)cc6cccnc56)CC4)CC3)c2c1 = 153 to 160 °C
3. COc1cc(N2CCN([C@H]3CC[C@H](c4cc5ccccc5s4)CC3)CC2)c2ncccc2c1 = 193 to 194 °C
4. Fc1ccc(N2CCN([C@H]3CC[C@@H](c4coc5ccccc54)CC3)CC2)c2ncccc12 = 142 to 144 °C
5. COc1cccc2c1occ2[C@H]1CC[C@H](N2CCN(c3cccc4cccnc34)CC2)CC1 = 195 to 197 °C
6. COc1cccc2c(CCN3CCN(c4cc(Cl)cc5cccnc45)CC3)coc12 (as salt: HCl) = 248 °C
7. Fc1ccc2scc([C@H]3CC[C@@H](N4CCN(c5ccc(Cl)c6cccnc56)CC4)CC3)c2c1 = 192 to 197 °C
8. COc1cccc2c1occ2[C@H]1CC[C@@H](N2CCN(c3cccc4cccnc34)CC2)CC1 = 66 to 67 °C

----------
Reported values of melting point for individual entries
metric: melting point

1. Fc1cc(N2CCN([C@H]3CC[C@@H](c4csc5ccccc54)CC3)CC2)c2ncccc2c1 = 147 to 151 °C
2. Clc1cc(N2CCN([C@H]3CC[C@H](c4csc5ccccc54)CC3)CC2)c2ncccc2c1 = 143 to 144 °C
3. COc1cc(N2CCN([C@H]3CC[C@H](c4csc5ccccc54)CC3)CC2)c2ncccc2c1 = 166 to 168 °C

----------
Ki listing for selected compounds.
# target or system: UniProt:P31645
# Sequence (P31645 whole entry): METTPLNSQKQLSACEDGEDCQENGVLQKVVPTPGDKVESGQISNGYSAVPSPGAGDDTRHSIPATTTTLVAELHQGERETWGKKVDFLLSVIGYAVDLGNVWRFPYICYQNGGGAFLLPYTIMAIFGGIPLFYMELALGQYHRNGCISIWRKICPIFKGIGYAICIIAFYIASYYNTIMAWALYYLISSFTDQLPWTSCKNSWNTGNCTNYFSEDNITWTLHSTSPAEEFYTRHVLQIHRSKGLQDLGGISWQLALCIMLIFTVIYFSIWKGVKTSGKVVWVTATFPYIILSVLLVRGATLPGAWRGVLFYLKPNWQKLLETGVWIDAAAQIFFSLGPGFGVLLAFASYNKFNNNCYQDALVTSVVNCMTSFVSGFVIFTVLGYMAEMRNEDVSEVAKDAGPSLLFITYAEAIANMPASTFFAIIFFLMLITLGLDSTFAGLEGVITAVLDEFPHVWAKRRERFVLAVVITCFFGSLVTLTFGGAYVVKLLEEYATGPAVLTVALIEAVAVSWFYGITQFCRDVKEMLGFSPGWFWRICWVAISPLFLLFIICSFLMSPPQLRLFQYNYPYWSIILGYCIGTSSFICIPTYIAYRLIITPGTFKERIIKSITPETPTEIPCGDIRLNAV
# test name: Inhibition of 3H-5-HT Uptake by Cells Possessing the Human 5-HT Transporter (HC 5HT Transporter), Jar cells
# experimental setup: HC-5HTC Transporter Ki (nM), Jar cells treated with staurosporine
metric: Ki

1) COc1cccc2c(C(C)CN3CCN(c4cccc5cccnc45)CC3)coc12 (stereo not drawn) = 9.53 nM
2) Fc1ccc2occ(CCN3CCN(c4cccc5cccnc45)CC3)c2c1 = 67.2 nM
3) COc1cc(N2CCN([C@H]3CC[C@@H](c4csc5ccccc54)CC3)CC2)c2ncccc2c1 = 1080 nM
4) COc1cc(N2CCN(CCc3coc4ccc(F)cc34)CC2)c2ncccc2c1 = 180 nM
5) COc1cccc2c1occ2[C@H]1CC[C@@H](N2CCN(c3cccc4cccnc34)CC2)CC1 = 96.8 nM
6) COc1cccc2c(CCN3CCN(c4cccc5cccnc45)CC3)coc12 = 9.46 nM
7) COc1cccc2c1occ2[C@H]1CC[C@H](N2CCN(c3cccc4cccnc34)CC2)CC1 = 38 nM
8) COc1ccc2c(CCN3CCN(c4cc(Cl)cc5cccnc45)CC3)coc2c1 = 540 nM
9) COc1cc(N2CCN([C@H]3CC[C@@H](c4cc5ccccc5s4)CC3)CC2)c2ncccc2c1 = 3000 nM
10) Fc1cc(N2CCN([C@H]3CC[C@@H](c4csc5ccccc54)CC3)CC2)c2ncccc2c1 = 1440 nM
11) Fc1cc(N2CCN(CCc3coc4ccc(F)cc34)CC2)c2ncccc2c1 = 50.9 nM
12) COc1cc(N2CCN([C@H]3CC[C@@H](c4csc5ccc(F)cc54)CC3)CC2)c2ncccc2c1 = 659 nM
13) COc1cccc2c(C(C)CN3CCN(c4cc(C)cc5cccnc45)CC3)coc12 (stereo not drawn) [Compound 34] = 881 nM
14) Clc1ccc2occ(CCN3CCN(c4cccc5cccnc45)CC3)c2c1 = 42.2 nM
15) Fc1ccc2scc([C@H]3CC[C@H](N4CCN(c5ccc(Cl)c6cccnc56)CC4)CC3)c2c1 = 751 nM
16) Fc1cc(N2CCN([C@H]3CC[C@@H](c4coc5ccccc54)CC3)CC2)c2ncccc2c1 = 472 nM
17) Fc1cc(N2CCN([C@H]3CC[C@H](c4csc5ccc(F)cc54)CC3)CC2)c2ncccc2c1 = 739 nM
18) Clc1ccc2c(CCN3CCN(c4cccc5cccnc45)CC3)coc2c1 = 1.6 nM
19) COc1cccc2c1occ2[C@H]1CC[C@@H](N2CCN(c3ccc(F)c4cccnc34)CC2)CC1 = 3040 nM
20) COc1cccc2c(C(C)CN3CCN(c4cc(C)cc5cccnc45)CC3)coc12 (stereo not drawn) [Compound 32] = 58.2 nM
21) Cc1cc(N2CCN(CCc3coc4cc(Cl)ccc34)CC2)c2ncccc2c1 = 1780 nM
